Cited source: ChEMBL document CHEMBL5230155

Reported IC50 is given for each of the following compounds.
# System: HCT-116
# procedure.text: Cytotoxicity against human HCT-116 cells
# Type: functional, cell-based
measured.parameter: IC50 (nM)

>>> value("[O-]/[N+](=C\\c1cc2ccccc2nc1SCc1ccccc1)c1ccccc1")
450
>>> value("Cc1ccc2nc(SCc3ccccc3)c(/C=[N+](\\[O-])c3ccccc3)cc2c1")
450
>>> value("COc1cccc2c1C(=O)c1c(O)c3c(c(O)c1C2=O)C[C@@](O)(C(=O)CO)C[C@@H]3O[C@H]1C[C@H](N)[C@H](O)[C@H](C)O1")
410

###

# Tested on: Hep 3B2
# procedure.text: Cytotoxicity against human Hep3B cells
# Format: functional, cell-based
measured.parameter: IC50 (nM)

>>> value("O=S(=O)(Nc1cccc2cccnc12)c1cccc2cccnc12")
1230
>>> value("COc1cccc2c1C(=O)c1c(O)c3c(c(O)c1C2=O)C[C@@](O)(C(=O)CO)C[C@@H]3O[C@H]1C[C@H](N)[C@H](O)[C@H](C)O1 [DOXORUBICIN]")
270
